- system under test: POU1 (OCT1 POU domain) (human, UniProt P14859 260-458)
- Sequence (P14859 260-458): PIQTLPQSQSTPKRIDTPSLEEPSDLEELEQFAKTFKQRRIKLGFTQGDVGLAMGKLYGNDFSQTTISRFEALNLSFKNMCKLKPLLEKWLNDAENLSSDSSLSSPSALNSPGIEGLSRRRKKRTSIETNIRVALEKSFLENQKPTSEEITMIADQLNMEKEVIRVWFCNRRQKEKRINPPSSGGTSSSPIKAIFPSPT
- protocol: EMSA-SELEX-seq; no BOB1; 20 mM Tris-HCl pH 7.6, 140 mM NaCl, 10% glycerol, 0.5 mM EDTA, 0.05% Triton X-100, 0.1 mg/mL BSA, 0.1 mg/mL poly(dI-dC), 5 mM DTT, room temperature, 20 min; high values mean tight binding
- details: protein: recombinant; dsDNA, one strand shown
List of binding signal values.

Example entries and their recorded answers appear below.
entry sequence	system under test	binding signal
AACAAAAA	POU1 (OCT1 POU domain) (human, UniProt P14859 260-458)	0.0831 % of ANNNNAAN 8-mers
AAGATAAG	POU1 (OCT1 POU domain) (human, UniProt P14859 260-458)	0.045 % of ANNNNAAN 8-mers
ACCGTAAA	POU1 (OCT1 POU domain) (human, UniProt P14859 260-458)	0.0244 % of ANNNNAAN 8-mers
ATGTGAAG	POU1 (OCT1 POU domain) (human, UniProt P14859 260-458)	0.0484 % of ANNNNAAN 8-mers
AGTCGAAC	POU1 (OCT1 POU domain) (human, UniProt P14859 260-458)	0.0221 % of ANNNNAAN 8-mers
AACAAAAC	POU1 (OCT1 POU domain) (human, UniProt P14859 260-458)	0.0587 % of ANNNNAAN 8-mers
ACGTCAAG	POU1 (OCT1 POU domain) (human, UniProt P14859 260-458)	0.0191 % of ANNNNAAN 8-mers
AGTCTAAC	POU1 (OCT1 POU domain) (human, UniProt P14859 260-458)	0.021 % of ANNNNAAN 8-mers

Ask: binding signal for AGAGTAAG ?
Result: 0.0305 % of ANNNNAAN 8-mers

Ask: # query: binding signal of entry AGGTCAAC
Result: 0.0198 % of ANNNNAAN 8-mers

====

binding signal overview
- system under test: POU2 (OCT2 POU domain) (human, UniProt P09086 175-386)
- Sequence: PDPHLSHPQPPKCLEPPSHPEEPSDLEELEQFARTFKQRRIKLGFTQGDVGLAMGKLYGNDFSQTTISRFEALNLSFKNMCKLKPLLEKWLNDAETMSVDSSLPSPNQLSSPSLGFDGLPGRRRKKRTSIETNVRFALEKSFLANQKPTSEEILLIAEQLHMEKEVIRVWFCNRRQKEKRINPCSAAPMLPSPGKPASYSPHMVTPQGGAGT
- protocol: EMSA-SELEX-seq; no BOB1; 20 mM Tris-HCl pH 7.6, 140 mM NaCl, 10% glycerol, 0.5 mM EDTA, 0.05% Triton X-100, 0.1 mg/mL BSA, 0.1 mg/mL poly(dI-dC), 5 mM DTT, room temperature, 20 min; high values mean tight binding
- details: protein: recombinant; dsDNA, one strand shown

The examples below pair each entry with its known result.
entry sequence	value type	result
ACCATAAG	binding signal	0.0414 % of ANNNNAAN 8-mers
AGCTGAAC	binding signal	0.0196 % of ANNNNAAN 8-mers
ACGGTAAT	binding signal	0.143 % of ANNNNAAN 8-mers
ATTGTAAG	binding signal	0.0685 % of ANNNNAAN 8-mers
AAAATAAC	binding signal	0.0696 % of ANNNNAAN 8-mers
AATTGAAT	binding signal	0.238 % of ANNNNAAN 8-mers
ATGCTAAG	binding signal	0.156 % of ANNNNAAN 8-mers
ATTCTAAA	binding signal	0.123 % of ANNNNAAN 8-mers
AGAGAAAT	binding signal	0.0708 % of ANNNNAAN 8-mers
ACCAGAAT	binding signal	0.0437 % of ANNNNAAN 8-mers

Ask: binding signal lookup needed for ATCGCAAT , thanks.
Result: 0.0391 % of ANNNNAAN 8-mers

Ask: Field request: binding signal | item: AATACAAA
Result: 0.108 % of ANNNNAAN 8-mers

Ask: Report binding signal for ACAAGAAG please.
Result: 0.0316 % of ANNNNAAN 8-mers

Ask: Would you kindly share the measured binding signal for ACTTAAAC ?
Result: 0.046 % of ANNNNAAN 8-mers

Ask: So what does the record say about binding signal for ACAATAAG ?
Result: 0.042 % of ANNNNAAN 8-mers

Ask: Requested field: binding signal. Item: ATTACAAC
Result: 0.042 % of ANNNNAAN 8-mers

Hello, the source for this data is paper PMC10812921, in case you need it.
